Test system: Plasmodium berghei
Experiment: Screen against P. berghei liver stage (PbLuc), transformed with Luciferase, at 10uM
Format: functional, HepG2
Details: tested at 10 uM
The campaign covered roughly 69,000 compounds. About 8,600 (12%) showed an effect of 50% or more. This is one part of a sample in which strong results are shown more often than they occur.
Class boundaries, taken from values of INHIBITION, are as follows: group A = under 10%, group B = from 10% up to 30%, group C = 30% and over

Lab note: sort "Cc1ccc(C(=O)N2CCCN(Cc3cccs3)CC2)n1C" into the matching INHIBITION band.
group A

Lab note: sort O=C(O)c1cc2c(nc1-c1cncnc1)CCN(C1CCOC1)CC2 (stereo not drawn) into the matching INHIBITION band.
group C

Lab note: sort "CC(=O)Nc1ccc(-c2ccccc2NC(=O)CN)cc1" into the matching INHIBITION band.
group A

Lab note: sort "CN(C)CCN(C)C(=O)c1ccccc1-n1cc(CN(C)C)cn1" into the matching INHIBITION band.
group A

Lab note: sort "Cc1cc(NC(=O)CN2CCn3c(nnc3C3CC3)C2)on1" into the matching INHIBITION band.
group B

Lab note: sort "COCC(=O)N1CCC2(CC1)CCN(Cc1ccccn1)C2=O" into the matching INHIBITION band.
group C

Lab note: sort "CSc1ccc(NC(=O)Cn2cc(N)cn2)cc1" into the matching INHIBITION band.
group A

Lab note: sort "c1ccc(OCc2nnc3n2CCN(CC2CCOCC2)C3)nc1" into the matching INHIBITION band.
group C

Lab note: sort "CC(=O)Nc1ccc(-c2ccccc2CCN)cc1" into the matching INHIBITION band.
group A

Lab note: sort "Cc1ccc(=O)n(CC2(O)CCN(Cc3cnc(N(C)C)nc3)CC2)n1" into the matching INHIBITION band.
group B

Lab note: sort "CNC(=O)CN(C)C(=O)c1cc(Cl)c(I)cc1OC" into the matching INHIBITION band.
group C

Lab note: sort "O=C(O)c1ccc(S(=O)(=O)Nc2ccccc2F)c(F)c1" into the matching INHIBITION band.
group B

Lab note: sort "COCCN1CCN(Cc2ccc(OCc3nccn3C)cc2)CC1" into the matching INHIBITION band.
group A

Lab note: sort O=C(NC1CCc2ccccc2C1)C1CCN(Cc2ccco2)CC1 (stereo not drawn) into the matching INHIBITION band.
group C

Lab note: sort Cc1cnn(CC2CCCCN2Cc2cc(C)no2)c1 (stereo not drawn) into the matching INHIBITION band.
group A

Lab note: sort CN(C)C(=O)CN1CCOCC2(C1)CN(c1ncccn1)CCO2 (stereo not drawn) into the matching INHIBITION band.
group B

Lab note: sort "Cc1cc(CNC(=O)NCCCC(=O)N2CCc3ccccc32)no1" into the matching INHIBITION band.
group C

Lab note: sort O=C(c1ccncc1F)N1CCCC(c2nccn2CC2CCC2)C1 (stereo not drawn) into the matching INHIBITION band.
group C

Lab note: sort "Cc1ccc(OCCCC(=O)Nc2nonc2C)cc1C" into the matching INHIBITION band.
group C

Lab note: sort "Cc1nonc1NC(=O)CCn1cc(Br)ccc1=O" into the matching INHIBITION band.
group B

Lab note: sort CC(=O)N1CCC(c2cncc(N3CCCC(O)C3)n2)CC1 (stereo not drawn) into the matching INHIBITION band.
group A

Lab note: sort "COc1cc(C(=O)NS(=O)(=O)c2cccc(C#N)c2)cc(OC)c1C" into the matching INHIBITION band.
group B

Lab note: sort "CN(C)CC(=O)N1CCC2(CC1)COCCN(c1ncccn1)C2" into the matching INHIBITION band.
group A

Lab note: sort "CCn1cnnc1CNC(=O)N1CCN(Cc2ccsc2)CC1" into the matching INHIBITION band.
group A

Lab note: sort "Cc1ccccc1NS(=O)(=O)c1ccc(C(=O)O)cc1F" into the matching INHIBITION band.
group B

Lab note: sort "COCC(=O)N1CCC2(CCN(Cc3ccccn3)CC2)CC1" into the matching INHIBITION band.
group C

Lab note: sort "Cc1ccc(N2C[C@@H](CN3CCOCC3)[C@@H](CO)C2)nn1" into the matching INHIBITION band.
group B

Lab note: sort CC(NCCCN1CCCC1=O)c1cc(Br)ccc1O (stereo not drawn) into the matching INHIBITION band.
group A

Lab note: sort O=C(C1CCOC1)N1CCC2(CC1)CN(c1ncccn1)CCO2 (stereo not drawn) into the matching INHIBITION band.
group B

Lab note: sort "COCC(=O)N1CCC2(CC1)CN(c1ccccn1)CCO2" into the matching INHIBITION band.
group C

Lab note: sort "Cc1noc([C@@H]2CCO[C@@H]3CCN(Cc4ccc(C)s4)C[C@@H]32)n1" into the matching INHIBITION band.
group C

Lab note: sort "COCCN1CC[C@H]2CN(c3cc(OC)ncn3)C[C@@H]2C1=O" into the matching INHIBITION band.
group C

Lab note: sort "Cn1c(N2CCOCC2)nc2cc(C(=O)NCC(F)(F)F)ccc21" into the matching INHIBITION band.
group B

Lab note: sort "NS(=O)(=O)c1cccnc1Nc1cccc(Cl)c1Cl" into the matching INHIBITION band.
group B

Lab note: sort CCc1nnsc1C(=O)N1CCCC1c1c(C)nn(C)c1OC (stereo not drawn) into the matching INHIBITION band.
group A

Lab note: sort "O=C(Nc1cccnc1)[C@H]1C[C@H]2OCC[C@H]2N(C(=O)c2ccsc2)C1" into the matching INHIBITION band.
group A

Lab note: sort "CC(=O)Nc1ccc(CNc2cccc(OCCF)c2)cc1" into the matching INHIBITION band.
group B

Lab note: sort "Cn1cccc1C(=O)N1CCC2(CC1)CN(c1ccccn1)CCO2" into the matching INHIBITION band.
group B

Lab note: sort CC(C)c1ccc(CCC(=O)N2CCOCC2c2ncon2)cc1 (stereo not drawn) into the matching INHIBITION band.
group A

Lab note: sort "COc1cc(N2C[C@H]3CN(CC(=O)N(C)C)C(=O)[C@H]3C2)ncn1" into the matching INHIBITION band.
group C

Lab note: sort CCc1nc(C2CCCN2C(=O)Cc2cccs2)no1 (stereo not drawn) into the matching INHIBITION band.
group A

Lab note: sort COCC(=O)N1CCC2(CC1)CC(COC)N(Cc1ccccn1)C2 (stereo not drawn) into the matching INHIBITION band.
group B

Lab note: sort "COCCNC(=O)c1cnc(N(C)C)nc1C" into the matching INHIBITION band.
group B

Lab note: sort "CC(=O)Nc1cccc(-c2ccccc2CCN)c1" into the matching INHIBITION band.
group C

Lab note: sort "Cc1noc([C@@H]2CCO[C@@H]3CCN(Cc4cccs4)C[C@@H]32)n1" into the matching INHIBITION band.
group B

Lab note: sort "Cc1cccc(CN2C(=O)CC[C@@H]3[C@H]2CCN3C(=O)c2ccsc2)n1" into the matching INHIBITION band.
group B

Lab note: sort "C[C@@H]1CN(C(=O)[C@H]2CCCO2)C[C@]12CCN(c1ccsc1)C2=O" into the matching INHIBITION band.
group C

* * *

Tested on: Plasmodium berghei
Assay: Screen against P. berghei liver stage (PbLuc), transformed with Luciferase, at 10uM
Format: functional, HepG2
Conditions: tested at 10 uM
The campaign covered roughly 69,000 compounds. About 8,600 (12%) showed an effect of 50% or more. The sample as a whole holds a higher share of strong results than the screen did.
measure_name: INHIBITION (%)
Unit % implied. Number only.

Which measured INHIBITION value corresponds to "CC(=O)N1CCCN(C(=O)NCCOc2ccc3c(c2)CCC3)CC1" ?
35.15

Which measured INHIBITION value corresponds to CC(Nc1cccc2c1OCCO2)C(=O)NC(N)=O (stereo unspecified) ?
-45.2

Which measured INHIBITION value corresponds to CC(=O)N1CC(=O)N(c2cnn(C)c2)CC12CCN(Cc1ccsc1)C2 (stereo unspecified) ?
23.5

Which measured INHIBITION value corresponds to "Cc1csc2nc3n(c(=O)c12)CCN(Cc1ccccn1)CC3" ?
1.5

Which measured INHIBITION value corresponds to CC(C)NC(=O)C1CN(C(=O)Nc2ccc(F)cc2)CC12CCOCC2 (stereo unspecified) ?
14.8

Which measured INHIBITION value corresponds to "O=c1cc(Cn2ccnc2)nc2n1CCCN(S(=O)(=O)C1CC1)C2" ?
-10.2

Which measured INHIBITION value corresponds to "COCCNC(=O)c1cc(COc2cncc(Cl)c2)on1" ?
25.8

Which measured INHIBITION value corresponds to CC(C)NC(=O)C1CN(C(=O)Cc2cccc(F)c2)CC12CCOCC2 (stereo unspecified) ?
10

Which measured INHIBITION value corresponds to Cn1c(CN2CCCC(c3noc(C4CC4)n3)C2)cc(=O)n(C)c1=O (stereo unspecified) ?
-50.5

Which measured INHIBITION value corresponds to "Cc1nc(N2CCOCC2)nc2c1CCN(c1nccs1)CC2" ?
37.8

Which measured INHIBITION value corresponds to CSc1ccc(C(C(=O)O)N2CCOCC2)cc1 (stereo unspecified) ?
41.2

Which measured INHIBITION value corresponds to CC(C)NC(=O)C1CN(C(=O)Nc2ccccc2)CC12CCOCC2 (stereo unspecified) ?
17.6

Which measured INHIBITION value corresponds to NC(=O)C1CCCN1C1CCN(C(=O)c2ccc3c(c2)OCO3)CC1 (stereo unspecified) ?
19.9

Which measured INHIBITION value corresponds to NC(=O)CN1CCCC(Cc2ccc(N3CCOCC3)nn2)C1 (stereo unspecified) ?
15.9

Which measured INHIBITION value corresponds to CC(CNC(=O)NCCCc1cc(N)n(-c2ccccc2)n1)N(C)C (stereo unspecified) ?
30.3

Which measured INHIBITION value corresponds to CC(C)c1cc(C(=O)N2CCc3ccccc3C2C(=O)O)nn1C (stereo unspecified) ?
-28

Which measured INHIBITION value corresponds to COCc1ccccc1C(=O)N1CCCC1Cn1nc(C)cc1C (stereo unspecified) ?
-72.745

Which measured INHIBITION value corresponds to CNC(=O)c1cccc(C2CNCCN2C(=O)c2ccn(C)n2)c1 (stereo unspecified) ?
33.7

Which measured INHIBITION value corresponds to CC(c1cccc(S(N)(=O)=O)c1)N(C)CCOC(C)(C)C (stereo unspecified) ?
-27.8

Which measured INHIBITION value corresponds to CC(c1ccc(F)cc1)N1CCN(Cc2nccn2C)CC1 (stereo unspecified) ?
11.9

Which measured INHIBITION value corresponds to "c1cc(CN2CCc3nc(N4CCOCC4)nc(NC4CC4)c3C2)co1" ?
-15.3

Which measured INHIBITION value corresponds to Cc1nc(CN(C)C(=O)NC(C)c2ccc3c(c2)OCCO3)cs1 (stereo unspecified) ?
31.2

Which measured INHIBITION value corresponds to "CSCCNC(=O)c1coc(COc2ccc(F)cc2)n1" ?
49.5

Which measured INHIBITION value corresponds to Cc1cc(C2CCCN(CCCS(C)(=O)=O)C2)n[nH]1 (stereo unspecified) ?
11.9

Which measured INHIBITION value corresponds to Cc1ccc(NC(=O)N2CC(C(=O)NC(C)C)C3(CCOCC3)C2)cc1 (stereo unspecified) ?
80

Which measured INHIBITION value corresponds to "CC(C)Nc1nc(N2CCOCC2)nc2c1CN(Cc1ccoc1)CC2" ?
55.2

Which measured INHIBITION value corresponds to CC(C)NC(=O)C1CN(C(=O)Cc2ccccc2)CC12CCOCC2 (stereo unspecified) ?
53.4

Which measured INHIBITION value corresponds to "Cc1csc2c(=O)n3c(nc12)CCN(C(=O)c1ccccn1)CC3" ?
35.2

Which measured INHIBITION value corresponds to "CC(C)Nc1nc(N2CCOCC2)nc2c1CN(CC(=O)N(C)C)CC2" ?
20.5

Which measured INHIBITION value corresponds to O=C(NCCC1CCCCO1)c1cc(COc2cncc(Cl)c2)on1 (stereo unspecified) ?
59.3

Which measured INHIBITION value corresponds to "OCc1cnc(Nc2ccccc2)nc1" ?
-7.27

Which measured INHIBITION value corresponds to "COCCC(=O)N1CC[C@H]2O[C@@H](C)C[C@H]2C1" ?
64.9

Which measured INHIBITION value corresponds to "CCn1ccc2ccnc(CC3CN(C(=O)c4ccc(F)cc4)C3)c21" ?
16.5

Which measured INHIBITION value corresponds to "CCN1C[C@H]2C3(CCN(C(=O)NC(C)C)CC3)CC[C@@]2(C(=O)N(C)C)C1" ?
28.5

Which measured INHIBITION value corresponds to O=C(NCCC1CCCCO1)c1coc(COc2ccc(F)cc2)n1 (stereo unspecified) ?
77.8

Which measured INHIBITION value corresponds to "CNC(=O)CS(=O)(=O)Cc1ccc(OC)c(F)c1" ?
52.2

Which measured INHIBITION value corresponds to "Cc1ccc(C(=O)NC2CCN(S(C)(=O)=O)CC2)c(=O)[nH]1" ?
47.7

Which measured INHIBITION value corresponds to "COCCC(=O)N1CC[C@@H]2O[C@@H](C)C[C@H]2C1" ?
18.8

Which measured INHIBITION value corresponds to "CS(=O)(=O)N1C[C@H]2CCCN(Cc3ccsc3)[C@H]2C1" ?
21.6

Which measured INHIBITION value corresponds to CC(C)NC(=O)C1CN(C(=O)N2CCCC2)CC12CCOCC2 (stereo unspecified) ?
22.7

Which measured INHIBITION value corresponds to "Cc1cc2c(=O)n3c(nc2s1)CCN(C(=O)c1ccncc1)CC3" ?
19.9

Which measured INHIBITION value corresponds to CC(C)NC(=O)C1CN(C(=O)CCc2ccccc2)CC12CCOCC2 (stereo unspecified) ?
20.9

Which measured INHIBITION value corresponds to CN(C)C(=O)N1CC(C(=O)NCC2CC2)C2(CCOCC2)C1 (stereo unspecified) ?
36.7

Which measured INHIBITION value corresponds to "CC(C)NC(=O)N1CCC2(CC1)CC[C@@]1(C(=O)N(C)C)CN(C)C[C@@H]21" ?
67.5

Which measured INHIBITION value corresponds to O=C(C1CCOC1)N1CCC2(CC1)Cc1ccccc1CNC2=O (stereo unspecified) ?
2.26

Which measured INHIBITION value corresponds to C1CN(c2nc3c(c(NC4CC4)n2)CN(CC2CCOC2)CC3)CCO1 (stereo unspecified) ?
-39.4
